Readings of IC50 for the listed compounds
- Tested on: 855422-203-R-J1-PDC spheroids with HUVEC/MSC, viability;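 note: agents incubated with spheroids for one week before read-out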
- Assay comment: Anticancer human tumor 855422-203-R-J1-PDC patient-derived bladder carcinoma cell line growth inhibition [PI3K]
- Assay setup: curve of first compound; second compound 0.1 µM

C=CC(=O)N1CCN(c2nc(=O)n(-c3c(C)ccnc3C(C)C)c3nc(-c4c(O)cccc4F)c(F)cc23)C(C)C1 (stereo not given) + Cc1nc(NC(=O)N2CCCC2C(N)=O)sc1-c1ccnc(C(C)(C)C(F)(F)F)c1 ... > 10 µM

Challenge: State its IC50 for this compound: Cn1ncnc1[C@H]1c2n[nH]c(=O)c3cc(F)cc(c23)N[C@@H]1c1ccc(F)cc1 + Cc1nc(NC(=O)N2CCCC2C(N)=O)sc1-c1ccnc(C(C)(C)C(F)(F)F)c1
Response given: > 0.1 µM

Challenge: State its IC50 for this compound: Cn1ncc(Cl)c1-c1cc(C(=O)NC(CN)Cc2cccc(F)c2)sc1Cl (stereo not given) + CC(Nc1ncnc2nc[nH]c12)c1cc2cccc(Cl)c2c(=O)n1-c1ccccc1
Response given: 0.706 µM

Challenge: State its IC50 for this compound: Cn1nccc1Nc1nccc(-c2ccn(C(CO)c3ccc(Cl)c(F)c3)c(=O)c2)n1 (stereo not given) + COc1c(OCCCN2CCOCC2)ccc2c3n(c(=NC(=O)c4cnc(N)nc4)nc12)CCN3
Response given: < 0.0316 µM

Challenge: State its IC50 for this compound: CC(Cn1ccc(-c2ccc(C#N)c(Cl)c2)n1)NC(=O)c1cc(C(C)O)[nH]n1 (stereo not given) + CC(Nc1ncnc2nc[nH]c12)c1cc2cccc(Cl)c2c(=O)n1-c1ccccc1
Response given: > 10 µM
